target: Human HDAC6 (Homo sapiens); construct: Full length with N-terminal GST tag, MW=159 kDa; GST (N); host or cells: Sf9 insect cells, baculovirus expression system; test: HDAC isoform inhibition, HDAC6; type: biochemical; conditions: duplicate 10-dose IC50 mode, 3-fold serial dilution starting at 30 μM
Sequence (Q9UBN7 whole entry, canonical isoform): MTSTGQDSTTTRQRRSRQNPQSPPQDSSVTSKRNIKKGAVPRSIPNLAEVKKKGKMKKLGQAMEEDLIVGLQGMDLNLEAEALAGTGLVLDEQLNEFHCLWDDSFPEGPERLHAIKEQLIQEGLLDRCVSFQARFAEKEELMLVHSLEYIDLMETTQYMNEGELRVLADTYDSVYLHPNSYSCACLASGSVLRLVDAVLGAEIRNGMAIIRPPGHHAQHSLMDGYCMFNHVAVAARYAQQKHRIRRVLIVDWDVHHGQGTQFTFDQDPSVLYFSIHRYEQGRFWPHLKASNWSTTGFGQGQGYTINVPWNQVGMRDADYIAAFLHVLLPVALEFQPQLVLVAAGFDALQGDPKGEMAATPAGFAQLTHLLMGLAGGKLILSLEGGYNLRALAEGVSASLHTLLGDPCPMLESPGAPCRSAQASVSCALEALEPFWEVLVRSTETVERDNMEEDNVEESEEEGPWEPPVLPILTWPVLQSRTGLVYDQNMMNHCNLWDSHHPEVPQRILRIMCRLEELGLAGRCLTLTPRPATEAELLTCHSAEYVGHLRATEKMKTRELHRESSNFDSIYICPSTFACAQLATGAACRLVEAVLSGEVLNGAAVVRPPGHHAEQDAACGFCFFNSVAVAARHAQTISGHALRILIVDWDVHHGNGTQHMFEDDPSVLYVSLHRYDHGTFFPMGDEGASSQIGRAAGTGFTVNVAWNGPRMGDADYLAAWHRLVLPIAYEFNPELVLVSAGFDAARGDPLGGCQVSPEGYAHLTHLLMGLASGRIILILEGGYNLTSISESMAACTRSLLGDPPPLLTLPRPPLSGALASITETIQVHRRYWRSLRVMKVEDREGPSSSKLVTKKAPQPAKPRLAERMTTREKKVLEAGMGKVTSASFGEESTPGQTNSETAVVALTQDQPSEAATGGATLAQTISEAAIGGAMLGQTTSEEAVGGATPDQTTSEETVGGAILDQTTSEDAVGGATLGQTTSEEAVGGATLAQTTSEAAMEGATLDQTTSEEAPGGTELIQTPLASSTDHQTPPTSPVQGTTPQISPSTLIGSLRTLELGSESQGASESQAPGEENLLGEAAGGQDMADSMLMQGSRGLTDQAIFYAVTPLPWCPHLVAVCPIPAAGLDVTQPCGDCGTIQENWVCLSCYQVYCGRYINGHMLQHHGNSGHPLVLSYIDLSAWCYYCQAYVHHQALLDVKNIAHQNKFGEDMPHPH
Measurement Type: IC50 (nM)

INSERT INTO assay_data (compound_structure_string, measurement_type, measurement) VALUES
  ('O=C(NO)c1cc(CCCOc2ccc(Cl)c(Cl)c2)on1', 'IC50', 195),
  ('CC1(C)CCN(CCCCc2cc(C(=O)NO)no2)c2ccc(Cl)cc21', 'IC50', 4360),
  ('O=C(NO)c1cc(CCCCN2c3ccc(Cl)cc3CCc3cc(Cl)ccc32)on1', 'IC50', 1340),
  ('O=C(NO)c1cc(CCCCN2CCCc3cc(Cl)ccc32)on1', 'IC50', 1990),
  ('O=C(NCCc1cc(C(=O)NO)no1)c1ccccc1', 'IC50', 194),
  ('O=C(NCCc1cc(C(=O)NO)no1)c1ccc2ccccc2c1', 'IC50', 10.3);

[a] O=C(NCCc1cc(C(=O)NO)no1)c1cccc(-c2ccccc2)c1
[b] O=C(NO)c1cc(CCCCn2ccc3cc(Cl)c(Cl)cc32)on1
Field: lower IC50 | Options: a / b Kindly give the label for the entry you pick.
a

---

target: Human HDAC1 (Homo sapiens, UniProt Q13547); construct: Full length with C-terminal GST tag, MW=79.9 kDa; GST (C); host or cells: Sf9 insect cells, baculovirus expression system; assay: HDAC isoform inhibition, HDAC1; assay type: biochemical; conditions: duplicate 10-dose IC50 mode, 3-fold serial dilution starting at 30 μM
Sequence (Q13547 whole entry, canonical isoform): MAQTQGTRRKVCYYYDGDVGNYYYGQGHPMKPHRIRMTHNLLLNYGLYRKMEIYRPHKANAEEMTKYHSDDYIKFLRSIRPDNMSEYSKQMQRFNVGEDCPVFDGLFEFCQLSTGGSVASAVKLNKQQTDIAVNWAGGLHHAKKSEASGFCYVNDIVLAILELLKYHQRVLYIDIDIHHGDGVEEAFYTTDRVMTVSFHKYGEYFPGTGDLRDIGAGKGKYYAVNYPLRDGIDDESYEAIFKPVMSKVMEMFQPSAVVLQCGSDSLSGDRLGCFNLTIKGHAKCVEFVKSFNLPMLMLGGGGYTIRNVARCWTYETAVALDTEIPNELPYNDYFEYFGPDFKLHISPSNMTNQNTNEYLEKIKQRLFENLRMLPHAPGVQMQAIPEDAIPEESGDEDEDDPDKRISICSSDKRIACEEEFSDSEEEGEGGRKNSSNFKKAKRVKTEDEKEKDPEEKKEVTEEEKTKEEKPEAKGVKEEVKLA
Measurement Type: IC50 (nM)

INSERT INTO measurements (compound_structure_string, tgt, measurement) VALUES
  ('CC1(C)CCN(CCCCc2cc(C(=O)NO)no2)c2ccc(Cl)cc21', 'Human HDAC1 (Homo sapiens, UniProt Q13547)', 174000);

[a] O=C(NCCc1cc(C(=O)NO)no1)c1ccc2ccccc2c1
[b] O=C(NCCc1cc(C(=O)NO)no1)c1cccc(-c2ccccc2)c1
[c] O=C(NO)c1cc(CCCCn2ccc3cc(Cl)c(Cl)cc32)on1
[d] O=C(NO)c1cc(CCCCN2CCCc3cc(Cl)ccc32)on1
Reorder: IC50, max to min. // ordering of labels required in reply
d, c, a, b
(d: 44000 nM, c: 11200 nM, a: 3030 nM, b: 2040 nM)
